Target: FGFR1-GST (Homo sapiens, UniProt P11362)
Construct: GST; made in house
Sequence (P11362 22-822): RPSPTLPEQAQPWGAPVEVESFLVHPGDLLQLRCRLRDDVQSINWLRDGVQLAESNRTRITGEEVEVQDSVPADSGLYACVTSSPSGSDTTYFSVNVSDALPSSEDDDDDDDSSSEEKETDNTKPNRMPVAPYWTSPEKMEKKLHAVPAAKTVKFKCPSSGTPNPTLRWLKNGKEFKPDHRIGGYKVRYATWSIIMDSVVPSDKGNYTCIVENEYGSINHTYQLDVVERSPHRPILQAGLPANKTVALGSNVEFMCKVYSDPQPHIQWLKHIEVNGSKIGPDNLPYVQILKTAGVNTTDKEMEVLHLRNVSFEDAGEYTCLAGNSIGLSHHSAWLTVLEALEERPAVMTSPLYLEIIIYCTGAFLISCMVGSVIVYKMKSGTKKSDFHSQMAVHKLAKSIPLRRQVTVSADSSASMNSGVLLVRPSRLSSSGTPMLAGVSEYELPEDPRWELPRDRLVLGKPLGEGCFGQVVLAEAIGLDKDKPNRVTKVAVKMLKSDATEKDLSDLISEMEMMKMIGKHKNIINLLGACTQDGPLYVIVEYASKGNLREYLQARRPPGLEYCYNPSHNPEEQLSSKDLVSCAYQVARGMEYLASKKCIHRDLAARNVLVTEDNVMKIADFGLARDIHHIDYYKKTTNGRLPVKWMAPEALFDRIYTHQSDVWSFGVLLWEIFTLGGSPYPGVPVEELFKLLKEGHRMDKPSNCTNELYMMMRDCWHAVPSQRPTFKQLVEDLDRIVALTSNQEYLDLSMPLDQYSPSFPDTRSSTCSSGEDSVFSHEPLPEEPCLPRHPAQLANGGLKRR
Experiment: FGFR-1 TR-FRET biochemical assay
Conditions: bounds given in nM
# IC50 per entry

molecule="Nc1ncnn2c(CN3CCOCC3)c(Cl)c(-c3ccc(NC(=O)Nc4cccc(C(F)(F)F)c4)c(Cl)c3)c12 [Example 160]" measured_metric=IC50 reading="10 to 100 nM"
molecule="COCc1c(-c2ccc(NC(=O)Nc3cc(C(F)(F)F)ccc3F)cc2)c2c(N)ncnn2c1CN1CCN(S(C)(=O)=O)CC1 [Example 20]" measured_metric=IC50 reading="10 to 100 nM"
molecule="CC(=O)c1c(-c2ccc(NC(=O)Nc3cc(C(F)(F)F)ccn3)cc2)c2c(N)ncnn2c1CN1CCN(C)CC1 [Example 96]" measured_metric=IC50 reading="10 to 100 nM"

Proceeding to the next molecule to report its IC50.
Briefly, IC50 measured for CC(=O)c1c(-c2ccc(NC(=O)Nc3cc(C(F)(F)F)ccc3F)c(F)c2)c2c(N)ncnn2c1CN1CCOCC1 [Example 57] : 10 to 100 nM

* * *

Biological target: FGFR1-GST (Homo sapiens, UniProt P11362)
Construct: GST; made in house
Experiment: FGFR-1 TR-FRET biochemical assay
Details: upper bound in μM
measured_metric: IC50

Example entries begin here.
compound="Nc1ncnn2c(CN3CCOCC3)c(Cl)c(-c3cc(F)c(NC(=O)Nc4cc(C(F)(F)F)ccc4F)cc3F)c12 [Example 156]" reading="< 1 µM"
compound="COCc1c(-c2ccc(NC(=O)Nc3cc(C(F)(F)F)ccc3F)c(F)c2)c2c(N)ncnn2c1C1CCN(C(=O)N(C)C)CC1 [Example 150]" reading="< 1 µM"
compound="COCCN(C)Cc1c(-c2ccc(NC(=O)Nc3cc(C(F)(F)F)ccc3F)cc2)c2c(N)ncnn2c1CN1CCOCC1 [Example 110]" reading="< 1 µM"
compound="CON(C)C(=O)c1c(-c2ccc(NC(=O)Nc3cc(C(F)(F)F)ccn3)cc2)c2c(N)ncnn2c1CN1CCN(C)CC1 [Example 94]" reading="< 1 µM"
compound="CC(C)(O)c1c(-c2ccc(NC(=O)Nc3cc(C(F)(F)F)ccn3)cc2)c2c(N)ncnn2c1CN1CCOCC1 [Example 86]" reading="< 1 µM"
compound="CON(C)C(=O)c1c(-c2ccc(NC(=O)Nc3cc(C(F)(F)F)ccn3)cc2)c2c(N)ncnn2c1CN1CCOCC1 [Example 97]" reading="< 1 µM"

// COCc1c(-c2ccc(NC(=O)Nc3cc(C(F)(F)F)ccn3)cc2)c2c(N)ncnn2c1CN1CCC(F)(F)CC1 [Example 40] : IC50 value = < 1 µM

* * *

Biological target: FGFR1-GST (Homo sapiens)
Construct: GST; made in house
Experiment: FGFR-1 TR-FRET biochemical assay
Settings: bounds given in nM
measured_metric: IC50

Check out these entries, answers already filled in.
line_notation=COCc1c(-c2ccc(NC(=O)Nc3cc(C(F)(F)F)ccn3)cc2)c2c(N)ncnn2c1CN1CCOCC1 reading="10 to 100 nM"
line_notation=CCc1c(-c2ccc(NC(=O)Nc3cc(C(F)(F)F)ccn3)cc2)c2c(N)ncnn2c1CN1CCOCC1 reading="10 to 100 nM"
line_notation=CCOC(=O)c1c(-c2ccc(NC(=O)Nc3cc(C(F)(F)F)ccn3)cc2)c2c(N)ncnn2c1-c1ccc(OC)cc1 reading="10 to 100 nM"
line_notation=CC(C)(O)c1c(-c2ccc(NC(=O)Nc3cc(C(F)(F)F)ccn3)cc2)c2c(N)ncnn2c1CN1CCOCC1 reading="> 100 nM"

Reported IC50 of COCc1c(-c2ccc(NC(=O)Nc3cc(C(F)(F)F)ccc3F)c(F)c2)c2c(N)ncnn2c1CN1CCOCC1 : < 10 nM

Nc1ncnn2c(CN3CCOCC3)c(/C=N/O)c(-c3ccc(NC(=O)Nc4cc(C(F)(F)F)ccc4F)cc3)c12 yielded IC50 of < 10 nM

Note to self: IC50 recorded for N#Cc1c(C(=O)NCC(F)(F)F)c(-c2ccc(NC(=O)Nc3cc(C(F)(F)F)ccc3F)cc2)c2c(N)ncnn12 was 10 to 100 nM

* * *

Molecular target: FGFR1-GST (Homo sapiens, UniProt P11362)
Construct: GST; made in house
Assay: FGFR-1 TR-FRET biochemical assay
Conditions: bounds given in nM
IC50 overview

These solved cases illustrate the format of a correct answer.
molecule="COCc1c(-c2ccc(NC(=O)Nc3cc(C(F)(F)F)ccn3)cc2)c2c(N)ncnn2c1CN1CCN(C(C)=O)CC1 [Example 37]" reading="10 to 100 nM"
molecule="COCc1c(-c2ccc(NC(=O)Nc3cc(C(F)(F)F)ccc3F)c(F)c2)c2c(N)ncnn2c1C1CCN(C(=O)N(C)C)CC1 [Example 150]" reading="> 100 nM"
molecule="Nc1ncnn2c(CN3CCOCC3)c(C(=O)NCC(F)(F)F)c(-c3ccc(NC(=O)Nc4cc(C(F)(F)F)ccc4F)cc3)c12 [Example 9]" reading="< 10 nM"

Read the next record carefully.
The measured IC50 that Nc1ncnn2c(CN3CCOCC3)c(Cl)c(-c3ccc(NC(=O)Nc4cc(C(F)(F)F)ccc4F)cc3)c12 [Example 154] showed for FGFR1-GST (Homo sapiens, UniProt P11362) is < 10 nM

* * *

Target: FGFR1-GST (Homo sapiens, UniProt P11362)
Construct: GST; made in house
Experiment: FGFR-1 TR-FRET biochemical assay
Conditions: bounds given in nM
// reported IC50 per item

The following compounds have reported results that may help.
line_notation=COCc1c(-c2ccc(NC(=O)Nc3cc(C(F)(F)F)ccc3F)cc2)c2c(N)ncnn2c1CN1CCN(C(C)=O)CC1 reading="10 to 100 nM"
line_notation=CN1CCN(Cc2c(C(=O)NCC(F)(F)F)c(-c3ccc(NC(=O)Nc4cc(C(F)(F)F)ccc4F)cc3)c3c(N)ncnn23)CC1 reading="< 10 nM"
line_notation=N#CCc1c(-c2ccc(NC(=O)Nc3cc(C(F)(F)F)ccn3)cc2)c2c(N)ncnn2c1CN1CCOCC1 reading="< 10 nM"
line_notation=COCc1c(-c2ccc(NC(=O)Nc3cc(C(F)(F)F)ccc3F)cc2)c2c(N)ncnn2c1CN1CCOCC1 reading="< 10 nM"
line_notation=Cc1c(-c2ccc(NC(=O)Nc3cc(C(F)(F)F)ccc3F)cc2)c2c(N)ncnn2c1CN1CCOCC1 reading="< 10 nM"

Read the next record carefully.
Observed IC50, FGFR1-GST (Homo sapiens, UniProt P11362), COCc1c(-c2ccc(NC(=O)Nc3cc(C(F)(F)F)ccc3F)c(F)c2)c2c(N)ncnn2c1CN1CCS(=O)(=O)CC1 : 10 to 100 nM

* * *

Biological target: FGFR1-GST (Homo sapiens)
Construct: GST; made in house
Assay: FGFR-1 TR-FRET biochemical assay
Settings: bounds given in nM
Recorded measurements of IC50, one per entry

line_notation=Nc1ncnn2c(CN3CCOCC3)c(Cl)c(-c3ccc(NC(=O)Nc4cc(C(F)(F)F)ccn4)c(F)c3)c12 measured_metric=IC50 reading="< 10 nM"
line_notation=CC(=O)c1c(-c2ccc(NC(=O)Nc3cc(C(F)(F)F)ccn3)c(F)c2)c2c(N)ncnn2c1CN1CCOCC1 measured_metric=IC50 reading="< 10 nM"
line_notation=Cc1cc(-c2c(C)c(CN3CCCOCC3)n3ncnc(N)c23)ccc1NC(=O)Nc1cc(C(F)(F)F)ccn1 measured_metric=IC50 reading="< 10 nM"
line_notation=Nc1ncnn2c(CN3CCOCC3)c(CO)c(-c3ccc(NC(=O)Nc4cc(C(F)(F)F)ccc4F)cc3)c12 measured_metric=IC50 reading="10 to 100 nM"
line_notation=COCc1c(-c2ccc(NC(=O)Nc3cc(C(F)(F)F)ccn3)c(C)c2)c2c(N)ncnn2c1CN1CCOCC1 measured_metric=IC50 reading="< 10 nM"

IC50 reported for this compound COCc1c(-c2ccc(NC(=O)Nc3cc(C)ccc3F)c(F)c2)c2c(N)ncnn2c1CN1CCCOCC1 : 10 to 100 nM

Summary for this compound, COCc1c(-c2ccc(NC(=O)Nc3cc(C(F)(F)F)ccc3F)cc2)c2c(N)ncnn2c1CN1CCN(C)CC1 : IC50 is 10 to 100 nM

What the record says about Cc1cc(-c2c(C)c(CN3CCOCC3)n3ncnc(N)c23)ccc1NC(=O)Nc1cc(C(F)(F)F)ccn1 : IC50 is < 10 nM

The compound identified as N#CCc1c(-c2ccc(NC(=O)Nc3cc(C(F)(F)F)ccc3F)cc2)c2c(N)ncnn2c1CN1CCOCC1 registered its IC50 at < 10 nM

Notebook: CS(=O)(=O)N1CCN(Cc2c(CC#N)c(-c3ccc(NC(=O)Nc4cc(C(F)(F)F)ccn4)cc3)c3c(N)ncnn23)CC1 , IC50 read as 10 to 100 nM

* * *

Each record here notes measured IC50.
Target: FGFR1-GST (Homo sapiens)
Construct: GST; made in house
Test: FGFR-1 TR-FRET biochemical assay
Details: bounds given in nM

Use the examples below as a reference point.
line_notation=CN1CCN(Cc2c(C#N)c(-c3ccc(NC(=O)Nc4cc(C(F)(F)F)ccc4F)cc3)c3c(N)ncnn23)CC1 tested_target="FGFR1-GST (Homo sapiens)" measured_metric=IC50 reading="10 to 100 nM"
line_notation=Nc1ncnn2c(CN3CCOCC3)c(Cl)c(-c3ccc(NC(=O)Nc4cc(C(F)(F)F)ccc4F)c(F)c3)c12 tested_target="FGFR1-GST (Homo sapiens)" measured_metric=IC50 reading="10 to 100 nM"
line_notation=N#Cc1c(C(=O)NCC(F)(F)F)c(-c2ccc(NC(=O)Nc3cc(C(F)(F)F)ccn3)cc2)c2c(N)ncnn12 tested_target="FGFR1-GST (Homo sapiens)" measured_metric=IC50 reading="10 to 100 nM"
line_notation=Nc1ncnn2c(CN3CCOCC3)c(C(F)F)c(-c3ccc(NC(=O)Nc4cc(C(F)(F)F)ccn4)c(F)c3)c12 tested_target="FGFR1-GST (Homo sapiens)" measured_metric=IC50 reading="< 10 nM"

// returns IC50 for COCCNCc1c(COC)c(-c2ccc(NC(=O)Nc3cc(C(F)(F)F)ccc3F)cc2)c2c(N)ncnn12 with FGFR1-GST (Homo sapiens); value = 10 to 100 nM

I looked up COCc1c(-c2ccc(NC(=O)Nc3cc(C(F)(F)F)ccc3F)cc2)c2c(N)ncnn2c1CNC1CC1 and its IC50 for FGFR1-GST (Homo sapiens) was 10 to 100 nM
